System: NCI-H1975
Test: Antiproliferative activity against human NCI-H1975 cells assessed as inhibition of cell growth incubated for 72 hrs by CCK-8 assay
Format: functional, cell-based
Details: NCI-H1975, 72 h
Measured IC50 values are reported for all entries that follow.
Please reply with the bare figure in µM and do not write the unit itself.

| SMILES ENTRY | READING |
| --- | --- |
| O=C1c2ccc(Oc3cccc(Oc4ccc5c(c4)C(=O)N(c4ccc(O)cc4)C5=O)c3)cc2C(=O)N1c1ccc(O)cc1 | 180 |

### Prompt Reported IC50, compound "CCOC(=O)CC(=O)CSc1nc2c(sc(=S)n2-c2ccc(C(=O)OCC)cc2)c2nc3ccccc3n12" : ____
### Response 197

====

Below: a set of entries, each annotated with reported inhibition.
Target: METTL3/METTL14 (Homo sapiens) (UniProt Q86U44+Q9HCE5)
Test: Inhibition of METTL3/METTL14 (unknown origin) using SAM as substrate at 25 uM incubated for 360 mins by luminescence based assay relative to control
Type: protein-complex assay

Here are 5 compounds together with their reported answers.
| COMPOUND | inhibition |
| --- | --- |
| COc1ccc(-c2nc(C[S+]([O-])CC(=O)NCc3ccco3)c(C)o2)cc1 (stereo unspecified) | 32.5% |
| O=C(CCSc1nc(-c2ccco2)cc(C(F)(F)F)n1)NCc1ccco1 | 36.3% |
| COc1ccc(NC(=O)CCn2ccc(=O)[nH]c2=O)c(O)c1 | 30.5% |
| COc1ccc(NC(=O)CCn2ccc(=O)[nH]c2=O)cc1 | 22.4% |
| O=C(CNC(=O)c1ccco1)N/N=C/c1cc(Br)cc(Br)c1OC(=O)c1cccc(F)c1 | 35.3% |

Moving on to the next compound.
### Prompt I am curious: what inhibition value has been reported for "CCOC(=O)CC(=O)CSc1nc2c(sc(=S)n2-c2ccc(C(=O)OCC)cc2)c2nc3ccccc3n12" ?
### Response 46.2%

====

Biological target: METTL3/METTL14 (Homo sapiens) (UniProt Q86U44+Q9HCE5)
Assay: Inhibition of METTL3/METTL14 (unknown origin) using SAM as substrate at 25 uM incubated for 360 mins by luminescence based assay relative to control
Assay type: protein-complex assay
READOUT TYPE: inhibition (%)
Give your result in % as a bare value.

| COMPOUND | READOUT TYPE | READING |
| --- | --- | --- |
| COc1ccc(C(=O)Nc2cccc(OCc3cc(=O)n4ccc(C)cc4c3)c2)cc1OC | inhibition | 25.1 |
| CCn1c(N2CCCC(C(=O)Nc3ccc4[nH]c(=O)[nH]c4c3)C2)cc(=O)n(C)c1=O (centres undefined) | inhibition | 36.7 |
| COc1ccc(NC(=O)Cn2cc(C(=O)c3ccc(C)cc3)c(=O)c3cc(OC)c(OC)cc32)cc1OC | inhibition | 24.1 |
| CC(=O)Nc1ccc(C)cc1NC(=O)CCC1COc2ccccc2O1 (centres undefined) | inhibition | 38.9 |
| CNC(=O)Cn1c(CO)cnc1SCC(=O)Nc1ccc(C(C)=O)cc1 | inhibition | 31.1 |

### Prompt I am curious: what inhibition value has been reported for "CC(=O)c1ccc(NC(=O)CSc2ncc(CO)n2Cc2ccc(F)cc2)cc1" ?
### Response 3.39

### Prompt Okay, and "O=C1c2ccc(Oc3cccc(Oc4ccc5c(c4)C(=O)N(c4ccc(O)cc4)C5=O)c3)cc2C(=O)N1c1ccc(O)cc1" ?
### Response 65.6

### Prompt // query: "CCn1c(SCC(=O)Nc2ccc(C)c(F)c2)nc2c3cc(OC)ccc3n(C)c2c1=O"
### Response 32.1

### Prompt Ok, now "O=C(CCCn1c(SCC(=O)Nc2ccc(F)cc2)nc2c(sc3ccccc32)c1=O)NCCO"
### Response 6.31

Entry source: ChEMBL document CHEMBL5608251
